All values here come from patent US20240101708A1.

# tested-on: T1, recombinant human RNF43 extracellular domain (human, UniProt Q68DV7 24-197)
# T1 construct: extracellular domain; also called huRNF43; human RNF43 ECD
# T1 sequence (looked up): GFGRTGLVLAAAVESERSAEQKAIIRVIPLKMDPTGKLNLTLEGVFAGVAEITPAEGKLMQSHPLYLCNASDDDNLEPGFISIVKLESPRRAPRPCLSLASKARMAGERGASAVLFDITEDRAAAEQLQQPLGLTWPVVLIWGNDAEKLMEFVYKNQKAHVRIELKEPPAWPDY
# experimental-details: SPR Biacore 8K; antibody captured on Protein A; RNF43 ECD analyte; 25 C
readout-kind: Kd (µM)
Provide only the numeric value, understood in µM.

For orientation, consider the following solved cases.
binder="RNF43-61 (antibody, V domains shown, Rat clone; VH/VL only) VH: EVQLVESGGDLVQPGRSLTLSCAASGFIFSDYYMAWVRQAPKKGLEWVASITYEGSSTYYGDSVKGRFTISRDNTKSTLYLLMNSLRSDDSATYYCARHGAHYTYNYAYYFDYWGQGVMVTVSS VL: DIMLTQSPTTLSVIPGENISLSCRASQSVGTNLHWYQQKPSESPRVLINYASQSISGIPSRFSGSGSGTDFTLNINRVEPEDSSVYYCQQSKSWPFTFGSGTKLEIK" experimental_value=0.00043
binder="RNF43-33 (antibody, V domains shown, Rat clone; VH/VL only) VH: QEQLKESGPGLVQPSQTLSLTCTVSGFSLTSYNVHWVRQPPRKGLEWMGRMRYNGDTSYNSALKSRLSISRDTSKNQVFLKMNSLQTDDTGTYYCARGPLWDYWGQGVMVTVSS VL: DVVLTQTPPTLSATIGQSVSVSCRSSQSLLHSNGNTYLNWLLQRPGQPPQLLIYLVSRLESGVPNRFSGSGSGTDFTLKISGVEAEDLGVYYCVQSTHAPYTFGAGTKLELK" experimental_value=0.063
binder="RNF43-123 (antibody, V domains shown, Rat clone; VH/VL only) VH: QIQLVQSGPELKKPGESVKISCKASGYTFTDYPMHWVKQAPGKGLKWMGWINTYTGKPTYADDFKGRFVFSLEASANTANLQISNLKNDDTATYFCALGPISTVFYAVDAWGQGTSVTVSS VL: DIQMTQSPSFLSASVGDRVTINCKASQNINKYLNWYQQKVGEAPKRLMYNTNNLQTGIPSRFSGSGSGTDYTLTISSLQPEDFATYFCLQHNSFPYTFGPGTELELK" experimental_value=0.0134
binder="RNF43-16 (antibody, V domains shown, Rabbit clone; VH/VL only) VH: QSVEESGGRLVTPGTPLTLTCTVSGFFLSSYYMSWVRQAPGKGLEWIGYIYAGSGSTYYASWAKGRFTISKTSTTVDLKITSPTTEDTATYFCVRDINGGDYGMDPWGPGTLVTVSS VL: DIVMTQTPASVSAAVGGTVTIKCQASESIDSGLAWYQQKPGQRPKLLIYAASNLASGVSSRFKGSGSGTEYSLTISGVQCDDAATYYCQCTYGSVTSNTYGIAFGGGTEVVVK" experimental_value=0.0378
binder="RNF43-221 (antibody, V domains shown, Rat clone; VH/VL only) VH: EVQLVESGGGLVQPGRSLKLSCTASGFTLSDYAMAWVRQAPEKGLEWVATISYDGSRTYYGGSVKGRFTISRDNAENILYLQMDSLRSADTATYYCANSATPHYWGQGVMVTVSS VL: DVVMTQTPASLSLAIGQPASISCKSSQSLLDTSRKTFLNWILQRPGQSPKRLIYQVSKLYSEVPDRFSGSGSETEFTLKISRVEAEDLGVYYCWQGTHFPDTFGAGTKLELK" experimental_value=0.0516

Look up and state reported Kd for RNF43-200 (antibody, V domains shown, Rat clone; VH/VL only) VH: QVQLKESGPGLVQPSQTLSLTCTVSGFSLTSYHISWVRQPPGKGLEWMGVIWTGGSTAYNSLLKSRLSISRDISKSQVFLKMNSLQAEDTATYYCAGSYYGYTSYFDYWGQGVMVTVSS VL: DIQMTQSPASLSASPEEIVTITCQASQDIDNWLAWYQQKPGKSPQLLIYSATRLADGIPSRFSGSRSGIQYSLKINRLQVEDTGIYYCLQRFGNPWTFGGGTKLELK 0.000539

Look up and state reported Kd for RNF43-13 (antibody, V domains shown, Rabbit clone; VH/VL only) VH: QSLEESGGGLVKPGGTLTLTCKASGIDFSGYYYMCWVRQAPGKGLEWIACIYTTSGSAWYASWAKGRFTISITTSLNTVTLQMTSLTATDTATYFCVRYANYGGYNYPEFGVLWGPGTLVTVSS VL: AYDMTQTPASVEVAVGATVTIKCQASEDIYNLLAWYQQKPGQPPKLLIYRASKLASGVPSRFSGSGSGTEFTLTISSVQCDDAATYYCQQGYSISNVENPFGGGTEVVVK 0.0996

Look up and state reported Kd for RNF43-129 (antibody, V domains shown, Rat clone; VH/VL only) VH: EVQLVESGGGLVQPGRSMKLSCAASGFTFSNYDMAWVRQAPKKGLEWVASITYDVSSTYYRDSVKGRFTISRDNAKSTLYLQMDSLRSEDTATYYCTTLDRAGYYYDGYGFYWFANWGQGTLVTVSS VL: DIQMTQSPSSMSVSLGDTVTITCRASQDVKIYVNWFQQKPGKSPRQMIYRATNLADGVSSRFSGSRSGSDYLFTISSLESEDVADYHCLQYDEYPPTFGSGTKVEIK 0.00117

Look up and state reported Kd for RNF43-177 (antibody, V domains shown, Rat clone; VH/VL only) VH: QVKLLQSGAALVKPGDSAKMSCKASGYTFTDSIIHWVKQSHGKSLEWIGYINPYSGGIQYNEKFKNKATLTVDKSSSTAYVEFSRLTSEDSAIYYCAREIRGMDAWGQGTSVTVSS VL: DIVLTQSPATLSVTPGESVSLSCRASQGISTSLHWYQQKSTESPRLLIKYASQSVSGIPSRFSGSGSGTDFTLSINRVESEDFSVYYCQQSYNLPRTFGPGTKLELK 0.00647

Look up and state reported Kd for RNF43-201 (antibody, V domains shown, Rat clone; VH/VL only) VH: QVTLKEYGPGILQPSQTLSLTCTFSGFSLRTYGMGVGWIRQPSGKGLEWLTNIWWDDDKYYNPSLKNRLTISKDTSNNQAFLKITNVDTEDSATYYCARIDGTFNYFDYWGQGVMVTVSS VL: DVVLTQTPSRLSATIGQSVSISCRSSQSLLDSDGNTYLYWFLQRPGQSPQRLIYLVSNLGSGVPNRVSGSGSGTDFTLKISGVEAEDLGIYYCLQATHAPLTFGSGTKLEIK 0.0099
